# System: Plasmodium falciparum
# protocol-text: Re-testing in dose-response curve in 3D7 pLDH assay, at 72h
# Format: functional, organism-based
# Parameters: timepoint 72 hour
# experimental-parameters: 3D7, Erythrocyte
Listed compounds paired with reported IC50

compound	IC50, µM
CCc1ccc(C(=O)NCCCC2CCCC2O)cc1S(=O)(=O)N1CCOCC1 (stereo not drawn)	2.49
C[C@H]1CCCN(c2nc(-c3ccccn3)nc3ccccc23)C1	1.71
CC1(C)OCc2cc(CNc3ccc4oc(=O)[nH]c4c3)ccc2O1	0.267

---

pIC50: recorded values
# System: Plasmodium falciparum
# protocol-text: Hit confirmation in dose-response curve in NF54 nanoGlo assay, at 72h
# Type: functional, organism-based, Erythrocyte
# Set-up: timepoint 72 hour
# experimental-parameters: Plasmodium falciparum, NF54, Erythrocyte, 72 h
pIC50: −log10 of the molar value.

molecule	sign	pIC50
NC(=O)C(NC(=O)c1cccc(Cl)c1)C(N)=O	<	5.00
CCc1nc2c(C(=O)N3CCOc4c(C)cc(C)cc43)ccnc2[nH]1	=	5.85
COc1ccc(CNCc2ccc(C)cc2)cc1Cn1ccnc1	=	5.73
O=C1NC(=O)c2ccc3c4c(ccc1c24)C(=O)N(c1ccccc1)C3=O	=	5.22
CCCN1CCC(NCc2ccc(-c3cccc(Cl)c3Cl)o2)CC1	=	5.58
Cn1c(N)c(S(=O)(=O)N2CCN(c3ccccc3Cl)CC2)c(=O)n(C)c1=O	=	5.82
C=CCCC(CN1C[C@H]2CC=CC[C@H]2C1)Oc1ncc(F)cn1 (stereo partly specified)	=	7.75
C[C@H]1CCN(c2nc(-c3ccccn3)nc3c2CCC3)C1	=	6.16
CC[C@H](O)CN1CCC(Nc2ncnc3cc(Cl)ccc23)CC1	=	5.79
COc1ccc(-n2ncc(Oc3cccc(C)c3)c(Nc3cccc(C(=O)NCc4ccc(F)cc4)c3)c2=O)cc1	=	5.45
O=C(CN1C=CCC=C1c1nc(-c2ccc(Br)cc2)cs1)c1ccccc1	=	5.58
Brc1cccc(-c2ccc(-c3cc(-c4ccccc4)nnc3-c3ccccc3)o2)c1	=	5.18
Oc1ccccc1-c1cnc(C(F)(F)F)s1	=	6.11
CC(C)N(CC(=O)Nc1nccs1)Cc1ccccn1	=	6.16
CC1(C)OCc2cc(CNc3ccc4oc(=O)[nH]c4c3)ccc2O1	=	6.26
Oc1ccc(-c2nnc(-c3ccc(O)cc3)nn2)cc1	=	5.71

---

# Test system: Plasmodium falciparum
# protocol-text: Hit confirmation in dose-response curve in NF54 nanoGlo assay, at 72h
# Type: functional, organism-based, Erythrocyte
# Parameters: timepoint 72 hour
# experimental-parameters: Plasmodium falciparum, NF54, Erythrocyte, 72 h
pIC50: −log10 of the molar value.
Binary call on pIC50: Y from 6 upward, N beneath that.

compound	class
C[C@H]1Cc2cc(C(=O)NCc3nc(C(F)(F)F)n[nH]3)ccc2O1	N
c1ccc2c[n+](Cc3ccc4ccccc4n3)ccc2c1	N
Cc1cc(C(=O)N[C@@H](C)c2nc(-c3cccnc3)cs2)cc(O)n1	N
CC(C)CCn1nnnc1[C@]1(N(C)C)CCCN(C(=O)c2cccn2C)C1	Y
Cc1c(C)n(CC(O)CNC(C)c2ccccc2)c2c(Cl)cccc12 (stereo unspecified)	N
O=C(Nc1cnc2ccccc2c1)c1ccccc1C(=O)c1ccc(F)cc1	Y
COCCCn1c(NS(=O)(=O)c2ccc3ccccc3c2)c(S(=O)(=O)c2ccc(C)cc2)c2nc3ccccc3nc21	N
COc1cc(F)c([C@H](C)NC(=O)N(C)Cc2ccco2)cc1OC	N
